# Species on record: Rattus norvegicus
# experiment: Preventive index against ethnol-induced gastric ulcer rat in treated group to control group
# Format: functional, Stomach
Please go through the items and note down their Preventive_index.
Answers are plain numbers.

Some solved entries appear below for comparison.
COc1c2ccoc2c(CN2CCOCC2)c2oc(-c3cccnc3)cc(=O)c12    19.5
COc1c2ccoc2cc2oc(-c3ccc(Cl)cc3)cc(=O)c12    34.5

# per-item lookup of Preventive_index; items listed below
1. COc1c2ccoc2c(CN2CCOCC2)c2oc(-c3ccc(Cl)cc3)cc(=O)c12
2. COc1c2ccoc2cc2oc(-c3ccccc3)cc(=O)c12 [PINNATIN]
3. COc1c2ccoc2cc2oc(-c3ccccc3)c(CN3CCOCC3)c(=O)c12
4. O=c1cc(-c2ccc(Cl)cc2)oc2cc3occc3c(O)c12

Result block:
1. 26.6
2. 31.3
3. 41.6
4. 33.9

* * *

# Species: Rattus norvegicus
# experiment: Preventive index against ethnol-induced gastric ulcer rat in treated group to control group
# Assay type: functional, Stomach
Rule: measured Preventive_index below 40 gets condition met; anything equal to or greater than 40 gets condition not met.

Worked examples, 6 compounds total:
COc1ccc(-c2cc(=O)c3c(OC)c4ccoc4cc3o2)cc1    condition not met
COc1c2occc2c(OC)c2c(=O)c(CN3CCN(C)CC3)c(-c3cccnc3)oc12    condition not met
COc1c2ccoc2cc2oc(-c3cccnc3)c(CN(C)C)c(=O)c12    condition met
O=c1cc(-c2ccccc2)oc2c(CN3CCOCC3)c3occc3c(O)c12    condition met
COc1c2ccoc2c(CN2CCN(C)CC2)c2oc(-c3cccnc3)cc(=O)c12    condition not met
O=c1cc(-c2ccc(Cl)cc2)oc2c(CN3CCOCC3)c3occc3c(O)c12    condition met

Query block: Report whether reported Preventive_index is lower than 40 (strictly) for "O=c1cc(-c2ccccc2)oc2cc3occc3c(O)c12"
Result block: condition met

Query block: Report whether reported Preventive_index is lower than 40 (strictly) for "COc1c2ccoc2c(CN2CCOCC2)c2oc(-c3ccccc3)cc(=O)c12"
Result block: condition met
